- Test system: SIMA (Neuroblastoma);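 further: after 72 h of two-drug dosing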
- Test Name: Bliss excess, mean over the matrix (fraction); higher = more synergy
Assay Metric: Bliss excess
Answers are plain numbers.

Compound: CCN(CCO)CCCOc1ccc2c(Nc3cc(CC(=O)Nc4cccc(F)c4)[nH]n3)ncnc2c1 [AZD2811] + O=C(c1cc(Cc2n[nH]c(=O)c3ccccc23)ccc1F)N1CCN(C(=O)C2CC2)CC1 [Olaparib] (first compound max 1 µM, 7x7, partner max 10 µM)
Test System: SIMA (Neuroblastoma);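 further: after 72 h of two-drug dosing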
Value: 0.0206

Attention now shifts to the item below.
Sample COc1cccc(OCCCN)c1-c1cc(Nc2cnc(C#N)cn2)n[nH]1 [Prexasertib] + O=C(c1cc(Cc2n[nH]c(=O)c3ccccc23)ccc1F)N1CCN(C(=O)C2CC2)CC1 [Olaparib] (first compound max 1 µM, 7x7, partner max 10 µM) ; Bliss excess observed: -0.0728

Every entry's value here was drawn from the supplement of paper PMC11061612.
